- test target: CDK2/Cyclin E complex (UniProt P24941 1-298; P24864 1-410)
- method: cell-based or functional assay
Square brackets hold non-standard residues; d marks the D form. Ends that are not written are not given here. Abu = CC[C@H](N)C(=O)O
readout kind: IC50, cyclin E/CDK2 kinase (nM)
Answer in nM, number only, no unit symbol.

The binder identified as HSKRRLIF-NH2 [p21 (152-159) HSKRRLIF-NH2] registered its IC50, cyclin E/CDK2 kinase at 3400

The recorded IC50, cyclin E/CDK2 kinase for entry KA[Abu]RRLFG-NH2 [P21 N-terminus peptide KAURRLFG-NH2] equals 74

binder HSKRRLFG-NH2 [P21 C-terminius-LFG hybrid HSKRRLFG-NH2] , IC50, cyclin E/CDK2 kinase observed: 1600

Entry HAKRRLFG-NH2 [P21 C-terminus (S153A) LFG HAKRRLFG-NH2] ; IC50, cyclin E/CDK2 kinase = 900

Sure, the documented IC50, cyclin E/CDK2 kinase for PVKRRLDL-NH2 (Derived from E2F1) [E2F1 peptide PVKRRLDL-NH2] is 2100
